# targetSystem: enzyme I (phosphoenolpyruvate-protein phosphotransferase, EC 2.7.3.9) of the E. coli phosphotransferase system (E. coli, UniProt P08839 1-575)
# assayProcedure: cell-based or functional assay
No end group written: not given here.
For each entry below, report its uncoupling Pi/peptide (x IC50/h) value.

Solved entries:
RLHYLF [peptide 21 RLHYLF] ... 64.2 Pi/peptide (x IC50/h)
MSRHRN [peptide 29 MSRHRN] ... 144 Pi/peptide (x IC50/h)
KMSRHRKPGA [peptide 16 KMSRHRKPGA] ... 22.2 Pi/peptide (x IC50/h)
RIHFIPRRGR [peptide 20 RIHFIPRRGR] ... 39.6 Pi/peptide (x IC50/h)
GLRFGKTRVHYLVLG [peptide 14 GLRFGKTRVHYLVLG] ... 3.2 Pi/peptide (x IC50/h)
SGRKSTRVHHWLLVL (not fully specified (residue 11)) [peptide 15 SGRKSTRVHHWLLVL] ... 6.6 Pi/peptide (x IC50/h)
KISRHGRPTG [peptide 19 KISRHGRPTG] ... 479 Pi/peptide (x IC50/h)
DGARLHYLF [peptide 22 DGARLHYLF] ... 132 Pi/peptide (x IC50/h)

Okay, here is my list. What is uncoupling Pi/peptide (x IC50/h) for each of these?
1. KISRHGKRGK [peptide 18 KISRHGKRGK]
2. Ac-DGARLHYLF [peptide 23 AcDGARLHYLF]

1.9 Pi/peptide (x IC50/h)
15.2 Pi/peptide (x IC50/h)

The reported numbers originate from patent EP0866075B1.
